Source listed as ChEMBL document CHEMBL1629528.

Property: Intrinsic activity; scope: individual compounds
target: 5-hydroxytryptamine receptor 1B (Homo sapiens, UniProt P28222); assay: Intrinsic activity at human recombinant 5-HT1B receptor expressed in CHO cells by [S35]GTPgammaS binding assay relative to 5-HT; format: functional, cell-based
Sequence (P28222 whole entry): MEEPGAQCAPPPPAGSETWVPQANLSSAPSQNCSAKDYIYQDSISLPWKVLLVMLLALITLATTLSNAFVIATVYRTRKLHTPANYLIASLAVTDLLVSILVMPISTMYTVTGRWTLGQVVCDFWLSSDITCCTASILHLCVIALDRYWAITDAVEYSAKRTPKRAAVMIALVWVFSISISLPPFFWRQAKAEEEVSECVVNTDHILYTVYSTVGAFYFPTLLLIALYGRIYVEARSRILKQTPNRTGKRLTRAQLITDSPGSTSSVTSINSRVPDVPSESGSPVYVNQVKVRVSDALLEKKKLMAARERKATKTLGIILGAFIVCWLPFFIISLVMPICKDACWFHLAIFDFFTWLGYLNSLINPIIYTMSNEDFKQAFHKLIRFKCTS

IN: Identify the reported Intrinsic activity for the following entry. `Cc1ccc2c(N3CCN(CCc4cccc(NC(=O)Nc5ccccc5)c4)CC3)cccc2n1`
OUT: 0

IN: Identify the reported Intrinsic activity for the following entry. `Cc1ccc2c(N3CCN(CCc4cccc(N5CCNC5=O)c4)CC3)cccc2n1`
OUT: 0

New cases:
IN: Identify the reported Intrinsic activity for the following entry. `Cc1ccc2c(OCCN3CCC(Cc4cccc(NS(C)(=O)=O)c4)CC3)cccc2n1`
OUT: 0.3

IN: Identify the reported Intrinsic activity for the following entry. `Cc1ccc2c(N3CCN(CCc4cccc(NC(=O)c5ccccc5F)c4)CC3)cccc2n1`
OUT: 0

IN: Identify the reported Intrinsic activity for the following entry. `CC(=O)N(C)c1cccc(CCN2CCN(c3cccc4nc(C)ccc34)CC2)c1`
OUT: 0.2

###

experiment: Half life in cynomolgus monkey at 1 mg/kg, iv; conditions: in vivo
test.readout: half-life (h)
Reply numerically in h, unit not repeated.

IN: Identify the reported half-life for the following entry. `Cc1ccc2c(N3CCN(CCc4cccc(N5CCNC5=O)c4)CC3)cccc2n1.Cl.Cl`
OUT: 5.3

###

Property: pKi; scope: individual molecules
target: 5-hydroxytryptamine receptor 1D (Homo sapiens); test: Displacement of [3H]5-HT from human recombinant 5-HT1D receptor expressed in CHO cells
Sequence (P28221 whole entry): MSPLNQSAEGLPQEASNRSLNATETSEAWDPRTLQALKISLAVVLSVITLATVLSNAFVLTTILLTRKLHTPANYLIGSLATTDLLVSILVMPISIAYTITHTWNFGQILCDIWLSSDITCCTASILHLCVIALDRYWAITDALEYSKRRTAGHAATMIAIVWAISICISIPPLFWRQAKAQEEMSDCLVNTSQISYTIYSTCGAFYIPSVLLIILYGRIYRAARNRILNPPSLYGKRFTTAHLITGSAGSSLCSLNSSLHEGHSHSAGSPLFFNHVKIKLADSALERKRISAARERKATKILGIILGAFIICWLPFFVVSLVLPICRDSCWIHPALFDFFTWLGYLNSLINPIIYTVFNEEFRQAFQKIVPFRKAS
Hey, just a heads up that pKi is the negative log base 10 of the concentration in molar.

IN: Report value only: pKi, 5-hydroxytryptamine receptor 1D (Homo sapiens), `CC(=O)Nc1cccc(CCN2CCN(c3cccc4nc(C)ccc34)CC2)c1`
OUT: 9.60

IN: Report value only: pKi, 5-hydroxytryptamine receptor 1D (Homo sapiens), `COC(=O)Nc1cccc(CCN2CCN(c3cccc4nc(C)ccc34)CC2)c1`
OUT: 9.60

IN: Report value only: pKi, 5-hydroxytryptamine receptor 1D (Homo sapiens), `Cc1ccc2c(N3CCN(CCc4cccc(NC(=O)C(C)C)c4)CC3)cccc2n1`
OUT: 9.80

IN: Report value only: pKi, 5-hydroxytryptamine receptor 1D (Homo sapiens), `Cc1ccc2c(N3CCN(CCc4cccc(N5CCCOC5=O)c4)CC3)cccc2n1`
OUT: 9.60

IN: Report value only: pKi, 5-hydroxytryptamine receptor 1D (Homo sapiens), `Cc1ccc2c(N3CCN(CCc4cccc(NC(=O)Nc5ccccc5)c4)CC3)cccc2n1`
OUT: 9.50

New cases:
IN: Report value only: pKi, 5-hydroxytryptamine receptor 1D (Homo sapiens), `Cc1ccc2c(N3CCN(CCc4cccc(NC(=O)c5cccc(F)c5)c4)CC3)cccc2n1`
OUT: 9.50

IN: Report value only: pKi, 5-hydroxytryptamine receptor 1D (Homo sapiens), `Cc1ccc2c(N3CCN(CCc4cccc(NS(C)(=O)=O)c4)CC3)cccc2n1`
OUT: 9.90

###

molecular target: Cytochrome P450 3A4 (Homo sapiens, UniProt P08684); test: Inhibition of CYP3A4 in human liver microsomes using atorvastatin as probe
Sequence (P08684 whole entry): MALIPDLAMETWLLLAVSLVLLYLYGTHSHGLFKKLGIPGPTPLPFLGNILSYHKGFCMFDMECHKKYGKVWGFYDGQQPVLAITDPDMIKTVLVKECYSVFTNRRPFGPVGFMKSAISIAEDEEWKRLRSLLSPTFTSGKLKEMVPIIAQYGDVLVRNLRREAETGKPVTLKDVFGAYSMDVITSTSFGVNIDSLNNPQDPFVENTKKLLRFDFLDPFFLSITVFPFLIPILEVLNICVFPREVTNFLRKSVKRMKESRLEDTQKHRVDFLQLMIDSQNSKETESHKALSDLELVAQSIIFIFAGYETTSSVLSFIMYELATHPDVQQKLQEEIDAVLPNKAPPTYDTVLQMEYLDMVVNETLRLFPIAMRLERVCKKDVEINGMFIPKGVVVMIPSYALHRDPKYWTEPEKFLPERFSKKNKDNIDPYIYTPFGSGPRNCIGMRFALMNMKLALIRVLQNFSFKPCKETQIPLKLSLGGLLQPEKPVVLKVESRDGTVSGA
test.readout: IC50 (µM)
Reply numerically in µM, unit not repeated.

IN: Identify the reported IC50 for the following entry. `Cc1ccc2c(N3CCN(CCc4cccc(N5CCNC5=O)c4)CC3)cccc2n1`
OUT: 21

###

target: 5-hydroxytryptamine receptor 2B (Homo sapiens); test: Binding affinity to human recombinant 5-HT2B receptor by radioligand displacement assay
Sequence (P41595 whole entry): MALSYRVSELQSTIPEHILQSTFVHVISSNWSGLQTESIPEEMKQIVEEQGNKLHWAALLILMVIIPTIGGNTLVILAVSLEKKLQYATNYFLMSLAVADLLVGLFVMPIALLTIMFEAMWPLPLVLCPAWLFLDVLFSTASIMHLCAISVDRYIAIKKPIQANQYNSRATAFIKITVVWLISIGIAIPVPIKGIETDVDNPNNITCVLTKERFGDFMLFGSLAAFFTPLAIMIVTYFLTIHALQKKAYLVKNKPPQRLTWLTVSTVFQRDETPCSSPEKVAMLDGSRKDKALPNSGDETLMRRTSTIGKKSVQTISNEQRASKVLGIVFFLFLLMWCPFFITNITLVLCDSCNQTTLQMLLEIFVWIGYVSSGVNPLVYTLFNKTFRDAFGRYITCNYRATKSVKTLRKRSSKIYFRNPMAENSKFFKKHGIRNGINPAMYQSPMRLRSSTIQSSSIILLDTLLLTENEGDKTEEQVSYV
Property: Ki; scope: individual molecules
Reply numerically in nM, unit not repeated.

IN: Identify the reported Ki for the following entry. `Cc1ccc2c(N3CCN(CCc4cccc(N5CCOC5=O)c4)CC3)cccc2n1`
OUT: 1260

IN: Identify the reported Ki for the following entry. `Cc1ccc2c(N3CCN(CCc4cccc(-n5cccn5)c4)CC3)cccc2n1`
OUT: 79.4

IN: Identify the reported Ki for the following entry. `CC(=O)Nc1cccc(CCN2CCN(c3cccc4nc(C)ccc34)CC2)c1`
OUT: 158

IN: Identify the reported Ki for the following entry. `Cc1ccc2c(N3CCN(CCc4cccc(NC(=O)c5cnccn5)c4)CC3)cccc2n1`
OUT: 794

IN: Identify the reported Ki for the following entry. `Cc1ccc2c(N3CCN(CCc4cccc(NC(=O)c5ccccc5)c4)CC3)cccc2n1`
OUT: 126

IN: Identify the reported Ki for the following entry. `CCNC(=O)Nc1cccc(CCN2CCN(c3cccc4nc(C)ccc34)CC2)c1`
OUT: 398

IN: Identify the reported Ki for the following entry. `Cc1ccc2c(N3CCN(CCc4cccc(NS(C)(=O)=O)c4)CC3)cccc2n1`
OUT: 398

IN: Identify the reported Ki for the following entry. `COC(=O)Nc1cccc(CCN2CCN(c3cccc4nc(C)ccc34)CC2)c1`
OUT: 200
